Entries and their pIC50
tested on: HuO-3N1; experiment: cells; assay type: functional, cell-based; details: Homo sapiens;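 further: cell viability readout used to measure how strongly compounds suppress proliferation of human HuO-3N1 cells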
Description: SANGER: Inhibition of human HuO-3N1 cell growth in a cell viability assay.
pIC50: −log10 of the molar value.

# Molecule, pIC50
records = [
    ("COc1ccc(-c2cc3nccn3c(Nc3ncccc3C(N)=O)n2)cc1OC", "< 5.10"),
    ("NC1(c2ccc(-c3nc4ccn5c(=O)[nH]nc5c4cc3-c3ccccc3)cc2)CCC1 [MK-2206]", "< 5.40"),
    ("C/C(=C\\c1csc(C)n1)[C@@H]1C[C@@H]2O[C@]2(C)CCC[C@H](C)[C@H](O)[C@@H](C)C(=O)C(C)(C)[C@@H](O)CC(=O)O1 [PATUPILONE]", "< 7.49"),
    ("Cc1ccc(-n2nc(C(C)(C)C)cc2NC(=O)Nc2ccc(OCCN3CCOCC3)c3ccccc23)cc1 [DORAMAPIMOD]", "< 5.00"),
    ("CN(C)CCOc1ccc(-c2nc(-c3ccncc3)c(-c3ccc4c(c3)CC/C4=N\\O)[nH]2)cc1 [SB590885]", "< 5.30"),
    ("CS(=O)(=O)N1CCN(Cc2cc3nc(-c4cccc5[nH]ncc45)nc(N4CCOCC4)c3s2)CC1 [PICTILISIB]", 6.19),
    ("OC[C@H](Cc1ccccc1)Nc1nc(Oc2ccc3c(c2)CCC3)nc2c1ncn2Cc1ccc(-c2ccccc2)cc1", "< 4.99"),
]
